System: MOLT-4 leukemia
Experiment: NCI tumour cell line growth inhibition, 48 h
Attribute: TGI

Problem: Query: TGI; subject: O=S(=O)(NC1=NCCN1C(=S)SN1CCn2c1nsc2=S)c1ccc(OC(F)(F)F)cc1
Result: 7.39 µM

Problem: Query: TGI; subject: c1ccc2cc(-c3cc(-c4cc(-c5ccc6ccccc6c5)on4)no3)ccc2c1
Result: > 100 µM

Problem: Query: TGI; subject: COc1ccc(-c2nc3sccn3c2/C(N)=N/C(=N)N)cc1OC
Result: > 100 µM

Problem: Query: TGI; subject: O=C1OCC(O)=C1C(c1ccc(Cl)cc1)c1cc2c(cc1O)OCO2 (stereo not given)
Result: > 100 µM

Problem: Query: TGI; subject: CC1=C(C(=O)Nc2ccc(Cl)c(Cl)c2)C(c2cccc(Oc3ccccc3)c2)NC(=S)N1 (stereo not given)
Result: > 50 µM

More entries:
Problem: Query: TGI; subject: O=S1(=O)c2ccccc2NC(c2ccc3ccccc3c2)CC1c1ccccc1F (stereo not given)
Result: > 100 µM

Problem: Query: TGI; subject: O=C(Nc1ccccc1)NS(=O)(=O)c1ccc(-n2nc3c(c2-c2cccs2)Cc2ccccc2-3)cc1
Result: > 100 µM

Problem: Query: TGI; subject: CCOC(=O)C(NC(C)=O)(Nc1ccc(F)cc1)C(F)(F)F (stereo not given)
Result: > 100 µM

Problem: Query: TGI; subject: O=C(O)CN(CC(=O)O)C1CCCCC1N(CC(=O)O)CC(=O)NCCN=C=S (stereo not given)
Result: > 100 µM

Problem: Query: TGI; subject: COc1cc(/C=C/C(=N\NS(=O)(=O)c2ccc(C)cc2)c2sc(NNC(C)=O)nc2C)ccc1O
Result: > 100 µM
